tested on: Faecalibacterium prausnitzii strain ATCC27768; experiment: Faecalibacterium proliferative effect in vitro: culture turbidity with oligosaccharide added; assay type: cell-based; settings: duration of culture 72 hours; oligosaccharide 5.0 g/L; 37° C., anaerobic
# turbidity (OD value) at 660 nm per record follows
The reply should be a number, written without any unit.

# SMILES REPR, turbidity (OD value) at 660 nm
records = [
    ("OC[C@H]1O[C@@](CO)(OC[C@@]2(O[C@H]3O[C@H](CO)[C@@H](O)[C@H](O)[C@H]3O)O[C@H](CO)[C@@H](O)[C@@H]2O)[C@@H](O)[C@@H]1O", 1.803),
    ("OC[C@H]1O[C@@](CO)(OC[C@@]2(OC[C@@]3(O[C@H]4O[C@H](CO)[C@@H](O)[C@H](O)[C@H]4O)O[C@H](CO)[C@@H](O)[C@@H]3O)O[C@H](CO)[C@@H](O)[C@@H]2O)[C@@H](O)[C@@H]1O", 0.305),
    ("OC[C@H]1O[C@H](OC[C@H]2O[C@H](O[C@]3(CO)O[C@H](CO)[C@@H](O)[C@@H]3O)[C@H](O)[C@@H](O)[C@@H]2O)[C@H](O)[C@@H](O)[C@H]1O", 0.246),
]

query: Quote turbidity (OD value) at 660 nm reported for "OC[C@H]1O[C@@H](O[C@H]2[C@H](O)[C@@H](O)[C@@H](O[C@]3(CO)O[C@H](CO)[C@@H](O)[C@@H]3O)O[C@@H]2CO)[C@H](O)[C@@H](O)[C@H]1O" please.
result: 0.295

====

Each entry below carries its reported turbidity (OD value) at 660 nm.
system: Faecalibacterium prausnitzii strain ATCC27768; assay: Faecalibacterium proliferative effect in vitro: culture turbidity with oligosaccharide added; assay type: cell-based; settings: duration of culture 24 hours; oligosaccharide 5.0 g/L; 37° C., anaerobic
A bare number is all that is needed in reply.

Before answering, review these 3 worked examples.
# COMPOUND, TEST TARGET, turbidity (OD value) at 660 nm
rows = [
    ("OC[C@H]1O[C@@](CO)(OC[C@@]2(O[C@H]3O[C@H](CO)[C@@H](O)[C@H](O)[C@H]3O)O[C@H](CO)[C@@H](O)[C@@H]2O)[C@@H](O)[C@@H]1O [1-kestose]", "Faecalibacterium prausnitzii strain ATCC27768", 0.345),
    ("OC[C@H]1O[C@H](OC[C@H]2O[C@H](O[C@]3(CO)O[C@H](CO)[C@@H](O)[C@@H]3O)[C@H](O)[C@@H](O)[C@@H]2O)[C@H](O)[C@@H](O)[C@H]1O [Raffinose, raffinose]", "Faecalibacterium prausnitzii strain ATCC27768", 0.251),
    ("OC[C@H]1O[C@@](CO)(OC[C@@]2(OC[C@@]3(O[C@H]4O[C@H](CO)[C@@H](O)[C@H](O)[C@H]4O)O[C@H](CO)[C@@H](O)[C@@H]3O)O[C@H](CO)[C@@H](O)[C@@H]2O)[C@@H](O)[C@@H]1O [Nystose, nystose]", "Faecalibacterium prausnitzii strain ATCC27768", 0.290),
]

query: Identify measured turbidity (OD value) at 660 nm associated with OC[C@H]1O[C@@H](O[C@H]2[C@H](O)[C@@H](O)[C@@H](O[C@]3(CO)O[C@H](CO)[C@@H](O)[C@@H]3O)O[C@@H]2CO)[C@H](O)[C@@H](O)[C@H]1O [Lactosucrose, lactosucrose]
result: 0.298

Data origin: patent US20190070204A1
